# Assay Notes: Lipophilicity, logD of compound
# Assay type: physicochemical
# Details: octanol/water
Observed Property: logD

Given the entry COc1ccc(-c2nn([C@@H](C)c3nn(-c4cccnc4)c4cc(Cl)ccc34)c3ncnc(N)c23)cc1F , report its measured logD.
3.82

----------
# Assay Notes: Plasma protein binding in mouse assessed as bound fraction at 1 uM incubated for 6 hrs by equilibrium dialysis method relative to control
# Type: ADME, cell-free
# Details: read-out: PPB (converted)
Observed Property: fraction unbound at 6 h, 1 µM
Kindly provide the number alone.

Field request: fraction unbound at 6 h, 1 µM | item: CC(=O)CC(c1ccccc1)c1c(O)c2ccccc2oc1=O (configuration not stated)
0.0981

For the compound COc1ccc(-c2nn([C@@H](C)c3nn(-c4cccnc4)c4cc(Cl)ccc34)c3ncnc(N)c23)cc1F , what fraction unbound at 6 h, 1 µM is on record?
0.0014
